- experiment: Apparent permeability across MDCK cells
- Format: ADME, cell-based, Canis lupus familiaris
- protocol conditions: dog
Please note: Papp exactly at 3 ×10⁻⁶ cm/s is false. Only values below 3 ×10⁻⁶ cm/s get true.

smiles_record=CN(C)CC[C@@H](c1ccccc1)n1cc(NC(=O)c2n[nH]c3c2CCC(C)(C)C3)cn1 label=false
smiles_record=N#Cc1cccc(Cn2cc(NC(=O)c3n[nH]c4cc(-c5cn[nH]c5)ccc34)cn2)c1 label=true
smiles_record=Cc1cccc([C@H](CCN(C)C)n2cc(NC(=O)c3n[nH]c4c3CCC(C)(C)C4)cn2)c1 label=false
smiles_record=CC1(C)CCc2c(C(=O)Nc3cnn([C@H](c4ccccc4)C4CCNCC4)c3)n[nH]c2C1 label=true
smiles_record=CC1(C)CCc2c(C(=O)Nc3cnn([C@@H](CCS(C)(=O)=O)c4ccccc4)c3)n[nH]c2C1 label=false
smiles_record=CC1(C)CCc2c(C(=O)Nc3cnn(Cc4ccccc4)c3)n[nH]c2C1 label=false

Hi there! Is Papp for CN(C)C[C@@H](c1ccccc1)n1cc(NC(=O)c2n[nH]c3c2CCC(C)(C)C3)cn1 below 3 ×10⁻⁶ cm/s, do you know? false
